Cited source for all entries: ChEMBL document CHEMBL4483862

# Test system: Plasmodium berghei
# experiment: Luciferase/luciferin-expressing antifolate-resistant parasites were used to infect a culture of HepG2 cells that were pre-incubated with compounds. Infected hepatocytes emit light due to the luciferase reaction. Assay results are presented as the percent inhibition of light emission compared to control. […]
# Type: functional
# test_settings: sporozoite, PBLUC_HILL_SLOPE 1.54, PBLUC_R_SQUARED 0.688, read-out: LUCIFERASE INFECTION ASSAY - IC50
pIC50: −log10 of the molar value.

compound	pIC50
CCOC(=O)N1CCC(NCC(O)COc2ccc(C(C)(C)C)cc2)CC1 (stereo unspecified)	5.39

====

# Tested on: Plasmodium berghei
# experiment: Luciferase/luciferin-expressing antifolate-resistant parasites were used to infect a culture of HepG2 cells that were pre-incubated with compounds. Infected hepatocytes emit light due to the luciferase reaction. Assay results are presented as the percent inhibition of light emission compared to control. […]
# Format: functional
# test_settings: sporozoite, HEPG2TOX_HILL_SLOPE 2.81, HEPG2TOX_R_SQUARED 0.729, PBLUC_HILL_SLOPE 4.52, PBLUC_R_SQUARED 0.618, read-out: LUCIFERASE INFECTION ASSAY - IC50
pIC50: −log10 of the molar value.

item_smiles	pIC50
N#Cc1ccc(NCCNc2nc3ccccc3s2)nc1	5.58
